System: GBM8 (high-passage patient-derived GBM line)
Assay: Drug screening of GBM8 tumor foci on OBSCs
Format: cell-based, human
Conditions: GBM8 on OBSCs; dose required to kill 10% of the tumor

{"Compound": "N.N.[Cl][Pt][Cl] [Cisplatin]", "EC10 [µM]": 0.0906}
{"Compound": "CC[C@]1(O)C[C@H]2CN(CCc3c([nH]c4ccccc34)[C@@](C(=O)OC)(c3cc4c(cc3OC)N(C=O)[C@H]3[C@@](O)(C(=O)OC)[C@H](OC(C)=O)[C@]5(CC)C=CCN6CC[C@]43[C@@H]65)C2)C1", "EC10 [µM]": 0.00435}
{"Compound": "Cn1nnc2c(C(N)=O)ncn2c1=O [Temozolomide]", "EC10 [µM]": 1.52}
{"Compound": "N.N.O=C([O-])C1(C(=O)[O-])CCC1.[Pt+2]", "EC10 [µM]": 1.16}

---

System: MB231Br (breast cancer metastasis to brain)
Experiment: Drug screening of MB231Br tumor foci on OBSCs
Format: cell-based, human
Conditions: MB231BR on OBSCs; area under the dose-response curve, trapezoidal rule

{"Molecule": "COc1cc([C@@H]2c3cc4c(cc3[C@@H](O[C@@H]3O[C@@H]5CO[C@@H](C)O[C@H]5[C@H](O)[C@H]3O)[C@H]3COC(=O)[C@H]23)OCO4)cc(OC)c1O [Etoposide]", "AUC": "4.75E+02"}
{"Molecule": "N.N.[Cl][Pt][Cl] [Cisplatin]", "AUC": "6.20E+01"}
{"Molecule": "CC[C@]1(O)C[C@H]2CN(CCc3c([nH]c4ccccc34)[C@@](C(=O)OC)(c3cc4c(cc3OC)N(C=O)[C@H]3[C@@](O)(C(=O)OC)[C@H](OC(C)=O)[C@]5(CC)C=CCN6CC[C@]43[C@@H]65)C2)C1", "AUC": "1.02E+01"}

---

Tested on: GBM8 (high-passage patient-derived GBM line)
Assay: Drug screening of GBM8 tumor foci on OBSCs
Format: cell-based, human
Details: Homo sapiens
Property label: log10 of EC90 (log10 of the value in µM)

{"Compound": "O=NN(CCCl)C(=O)NC1CCCCC1 [Lomustine]", "log10 of EC90": 0.94}
{"Compound": "COc1cc([C@@H]2c3cc4c(cc3[C@@H](O[C@@H]3O[C@@H]5CO[C@@H](C)O[C@H]5[C@H](O)[C@H]3O)[C@H]3COC(=O)[C@H]23)OCO4)cc(OC)c1O [Etoposide]", "log10 of EC90": 0.96}
{"Compound": "CC[C@]1(O)C[C@H]2CN(CCc3c([nH]c4ccccc34)[C@@](C(=O)OC)(c3cc4c(cc3OC)N(C=O)[C@H]3[C@@](O)(C(=O)OC)[C@H](OC(C)=O)[C@]5(CC)C=CCN6CC[C@]43[C@@H]65)C2)C1 [Vincristine]", "log10 of EC90": -0.59}
{"Compound": "CC(=O)Nc1cccc(-n2c(=O)n(C3CC3)c(=O)c3c(Nc4ccc(I)cc4F)n(C)c(=O)c(C)c32)c1 [Trametinib]", "log10 of EC90": 0.22}
{"Compound": "Nc1ncn([C@@H]2O[C@H](CO)[C@@H](O)[C@H]2O)c(=O)n1 [Azacitidine]", "log10 of EC90": 1.92}
